Biological target: dopamine D2 receptor (Rattus norvegicus, UniProt P61169)
Construct: Striata from rats (Sprague Dawley, Charles River) were homogenized immediately after removal; from tissue; host or cells: rat striatum (Sprague Dawley, Charles River), membranes
Sequence (P61169 whole entry): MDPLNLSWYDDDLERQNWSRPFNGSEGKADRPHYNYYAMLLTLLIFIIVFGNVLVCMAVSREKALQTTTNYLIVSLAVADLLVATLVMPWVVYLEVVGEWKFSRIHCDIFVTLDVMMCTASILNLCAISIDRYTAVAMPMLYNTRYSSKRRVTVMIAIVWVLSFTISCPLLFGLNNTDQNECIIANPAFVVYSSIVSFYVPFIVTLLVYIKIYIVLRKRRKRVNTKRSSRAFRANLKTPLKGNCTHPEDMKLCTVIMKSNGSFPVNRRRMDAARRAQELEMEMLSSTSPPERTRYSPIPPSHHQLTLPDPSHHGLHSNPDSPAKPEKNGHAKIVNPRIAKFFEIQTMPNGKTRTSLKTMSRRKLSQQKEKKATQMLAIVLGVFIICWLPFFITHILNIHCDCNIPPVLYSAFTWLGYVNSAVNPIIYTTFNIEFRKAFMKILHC
Experiment: Receptor binding assay: affinity for the dopamine D2 receptor (3H-ADTN displacement, rat striatal membranes)
Design: species or system rat (Sprague Dawley)
Structures can show the parent of a compound that is named as a salt.
Kindly state pKi for each of the entries shown.
Answers are plain numbers, as −log10 of the molar value.

>>> recorded_value("Nc1nnc(SCCCN2CC=C(c3ccccc3)CC2)s1 [Example 4, hydrochloride]")
8.22

# evaluate next
Prompt line: GET /values?readout=pKi&item= Nc1nnc(SCCN2CC=C(c3ccccc3)CC2)s1 [Example 3, dihydrochloride]
Response line: 7.92

====

Target: dopamine D2 receptor (Rattus norvegicus, UniProt P61169)
Construct: Striata from rats (Sprague Dawley, Charles River) were homogenized immediately after removal; from tissue; host or cells: rat striatum (Sprague Dawley, Charles River), membranes
Assay: Receptor binding assay: affinity for the dopamine D2 receptor (3H-ADTN displacement, rat striatal membranes)
Parameters: species or system rat (Sprague Dawley)
Settings: rat striatal membranes, 1 nM 3H-ADTN, 0.1 μM SCH 23390, 40 min at 25° C., pH 7.4; non-specific binding with 50 nM spiperone; read-out: Ki (affinity of the test substances for the dopamine D2 receptor)
Where a name gives a salt, the structure may show the parent alone.
Measurement kind: pKi
Answers are plain numbers, as −log10 of the molar value.

Consider the reported pKi for these compounds:
>>> recorded_value("Cc1cccc(N2CCN(CCCSc3nnc(N)s3)CC2)c1 [Example 14, hydrochloride]")
7.44
>>> recorded_value("Nc1nnc(SCCN2CCC(c3ccccc3)CC2)s1 [Example 8, hydrochloride]")
7.35
>>> recorded_value("Nc1nnc(SCCCN2CCN(c3ccc(F)cc3)CC2)s1 [Example 1, dihydrochloride]")
6.90
>>> recorded_value("CCOc1ccccc1N1CCN(CCSc2nnc(N)s2)CC1 [Example 11, hydrochloride]")
7.82

# evaluate next
Prompt line: GET /values?readout=pKi&item= CCCN(CCCSc1nnc(N)s1)CCc1ccccc1 [Example 9, tartrate]
Response line: 7.35
